- assay: folding stability dG unfold from trypsin proteolysis; higher = more stable
Reported folding stability dG unfold by item:

{"residues": "SAGGSAGGSGMVEEEEYEDPATGVRTRTTTTYLPNGTVVRTPVVYTPDRPVEEVPTVTPIPSGSAGGSAGGS [r20_88_JUSTAS]", "folding stability dG unfold (kcal/mol)": 1.04}
{"residues": "SAGGSKKVILIAKIPNEDKYLVLIASDSPELVKEAAKKAKKPGFYVLGEMTVEEAVKKLGLPPELFKSAGGS [r16_438_TrMRF]", "folding stability dG unfold (kcal/mol)": 1.04}
{"residues": "SAGGNPDWIPIQVPFEDPGDQDAMKKLVEELADIFLDEGIKPIEVEHTNPGHYSVWIPFDGKSIRIHSAGGS [r16_703_TrROS]", "folding stability dG unfold (kcal/mol)": -0.37}
{"residues": "SAGGSAGGSAGGKKKFGFLILVKNKDDEKLYLVEVPEELSLEEFLPDQEIDEEVIKKAIGSAGGSAGGSAGG [r17_412_TrMRF]", "folding stability dG unfold (kcal/mol)": 0.823}
{"residues": "SAGGSGQKFEIDRMIHIPLPNGRMLYIMRMKNPIMIMEFNGDNFRPVATVPNDDIPPEIRDLIKKLSAGGSA [r2_133_TrROS]", "folding stability dG unfold (kcal/mol)": 1.95}
{"residues": "SAGGSAGGKKFKPGQVVLDPKTKELYVIKGEVTVKEDGSLSIKVEKVKLPKPKKLTKEQLEKLKSAGGSAGG [r6_771_TrROS_Hall]", "folding stability dG unfold (kcal/mol)": 0.687}
{"residues": "SAGGSSSSTSTRIDPTTGEWVTSTSSFPVPPAPPYIEVRLDVPPEEAEALREKLLAEHPDLPVRLEASAGGS [r8_437_JUSTAS]", "folding stability dG unfold (kcal/mol)": 0.336}
{"residues": "SAGGSAGGKRKIEIHIIIPPGMPPEWRKKAIEIAKWFAKTLAQENNREVEIKIEIFVLDGMPPWSAGGSAGG [r6_204_TrROS]", "folding stability dG unfold (kcal/mol)": 2.82}
{"residues": "SAGGSKPILKIKITIYRIDKNGKLIKKIELTLPPLTEEQLKKLLEALKKLPKDVKIVEVKIELVEPSAGGSA [r2_75_TrROS_Hall]", "folding stability dG unfold (kcal/mol)": 3.49}
{"residues": "SAGGSAMKKTTATFYVRPDSLTVEIELGEKTKKLTFDPSVSIEEVKASLPDYVDEVKVKPASPSLSSAGGSA [r15_1058_JUSTAS]", "folding stability dG unfold (kcal/mol)": -0.43}
{"residues": "SAGGSAGGMYTKTYNVPPDWKVTATATAPGGATVTDSSAPNGNFTLTFPASLADATTFTVTVTPSAGGSAGG [r6_237_JUSTAS]", "folding stability dG unfold (kcal/mol)": -0.869}
{"residues": "SKKIIIKITITDPKNKKKIKITEIIFDKKTKKIIIKIEVENVKNKEKLKSKEDVLEAIKKLLEKLGFKPISA [r9_258_TrROS_Hall]", "folding stability dG unfold (kcal/mol)": 1.81}
{"residues": "SAGGSAGGSWRTITYEFKLPKPGQTAEDIAKEIMQLFPGVKDIEIKYYPEEGYIKVDIRFRPNSAGGSAGGS [r20_31_TrROS]", "folding stability dG unfold (kcal/mol)": 3.37}
{"residues": "SAGGSAGGSAGKTIPIDEEEAKALFKAGNPRTITRLLPDGKTETLTYQPETNEVSVLDPKAPSAGGSAGGSA [r18_400_JUSTAS]", "folding stability dG unfold (kcal/mol)": -0.795}

----------
Reported folding stability dG unfold by item:
- assay: folding stability dG unfold (combined trypsin and chymotrypsin); higher = more stable

{"residues": "SMRKVKRKVTLEITIKVPESVLKPIPDADYYTYPFDDKLVKPDAVIPRTVTITGPYTEEEVEKLVKEILSSA [r9_165_JUSTAS]", "measurementQualifier": "=", "folding stability dG unfold [kcal/mol]": 0.249}
{"residues": "SAGNPDKPPKPRTYTLEIEIKLPPGDPDQAKELAHEIAHEIRDLGIKDTEVEYDPGNGRVRISITFTFWSAG [r5_512_TrROS]", "measurementQualifier": "=", "folding stability dG unfold [kcal/mol]": 3.27}
{"residues": "SAGSPEELAEKIAEELAAEYEKKNPDKKPVKIEVKEVVVDPEGGSVTIKIKFYDPDGKPLAEPVITVESAGG [r19_53_JUSTAS]", "measurementQualifier": "=", "folding stability dG unfold [kcal/mol]": 1.76}
{"residues": "SAGGSAGGSAGASPSVPFTVKVTIKSPNGLSTKTISLSSLEDLEALPLPNVVEIEITPLSSAGGSAGGSAGG [r17_290_JUSTAS]", "measurementQualifier": "=", "folding stability dG unfold [kcal/mol]": 0.907}
{"residues": "SAAEWLKEEGLKVKDVEVTKPRENPNGKREMEYRIKVRLPNKKVEVPIRMPSDSPETALNMAHNILRELSAG [r14_726_TrROS]", "measurementQualifier": "<", "folding stability dG unfold [kcal/mol]": -1}
{"residues": "SAGGSAGGSAMVVEIKPEKLPNGKYKVTVTITDPSTGKTTTTPYIVDPNKFTEEDIKKKLSSAGGSAGGSAG [r3_127_JUSTAS]", "measurementQualifier": "=", "folding stability dG unfold [kcal/mol]": 1.58}
{"residues": "SAGGSAGGSVKDKNGTPYSVKEAKEKKLPNGTLVIELTLPESGKKITIPKKDIPKGISSEAKLKSAGGSAGG [r6_371_JUSTAS]", "measurementQualifier": "<", "folding stability dG unfold [kcal/mol]": -1}
{"residues": "SAGGSAGGMVVERKDMDPEEAVEDTKKRIKEETGWEVTEITVTEFPEEPRLVVTIKVKKPPEKSSAGGSAGG [r6_462_JUSTAS]", "measurementQualifier": "=", "folding stability dG unfold [kcal/mol]": 0.408}
{"residues": "SAGGSYTVEELPPGGILRITFTVPKSRPAEVPLELKAPDGTPVDVESYSITPVGDTNVITYTIKVPLSAGGS [r16_499_JUSTAS]", "measurementQualifier": "=", "folding stability dG unfold [kcal/mol]": 1.85}
{"residues": "SAGGKVYEFEIEVELLDPETGKPKKIKLKVPVFVDPKTGKVTKKVEAEPEPNVPKEEAEKIAKEIIEAESAG [r14_152_TrMRF]", "measurementQualifier": "=", "folding stability dG unfold [kcal/mol]": 1.36}
{"residues": "SAGGSAGGSAGDAEEIADEIRENMYGPDGKYVPKEVEIKEIEPPPGQLKVEIEMPPGMPISAGGSAGGSAGG [r17_519_TrROS]", "measurementQualifier": "=", "folding stability dG unfold [kcal/mol]": 1.32}
{"residues": "SAGGSAGGSAGGFIPEDGHPDETVQLTTSLTLTTSYTLPNGETVTETHTVPVLFTYKVPSAGGSAGGSAGGS [r10_1135_TrMRF]", "measurementQualifier": "=", "folding stability dG unfold [kcal/mol]": 0.797}
{"residues": "SAGGMISKKLNPPSKEEAEKIAEEIKKKNPNYKVTMTYDPKTGTYTITITPLPKPPPDPKNFKEIIKSAGGS [r16_674_JUSTAS]", "measurementQualifier": "=", "folding stability dG unfold [kcal/mol]": 1.48}
{"residues": "SAGGSAGGNGPPDIKIKIEILEVHPGHRDPDGKYYFRVRVEIEYPNKPVKVDFPMPADDAKDLISAGGSAGG [r6_724_TrROS]", "measurementQualifier": "=", "folding stability dG unfold [kcal/mol]": 3.66}
{"residues": "SAGMDPNEKREVVVELEFEVPDPSNPEGGSVPIRVTLKATGKGTEEEAEELKKKAEEEAREKVEKGELLSAG [r5_532_JUSTAS]", "measurementQualifier": "=", "folding stability dG unfold [kcal/mol]": -0.287}
{"residues": "SDALKNIPFEIVEIDPPPPDRPIPAGGTVRITVYNPLTPGQPFTFDVRFIPGEGTLIAEIGGLPVEIPIGSA [r9_243_TrMRF]", "measurementQualifier": "=", "folding stability dG unfold [kcal/mol]": 2.94}
{"residues": "SAGGSAGGSGMAVSVSVTPVRLPDGSVRLVISFSSGSTVVLDLPESEWTPEQVEALVAELVSASAGGSAGGS [r12_218_JUSTAS]", "measurementQualifier": "=", "folding stability dG unfold [kcal/mol]": 3.89}
{"residues": "SAGGETLTVTVLIKNKDEKNKYYKVEVKVTVEKNENGEKTLTIEMKITDKNGNKKTIKVNLKDIKIIDSAGG [r13_787_TrROS_Hall]", "measurementQualifier": "=", "folding stability dG unfold [kcal/mol]": 3.69}
{"residues": "SAGGSAGGSAGVIPFDSPEDAERAIEEAFRNGDPVTIHRRNPDGKHQTIPFKIKLPKNDPSAGGSAGGSAGG [r17_462_TrROS]", "measurementQualifier": "<", "folding stability dG unfold [kcal/mol]": -1}
{"residues": "SAGSPSIVRTPSLTYDPDPRNPSTPRLRQASVTATNPNGETITFTFTSLEDMDAALNAWIAANPELLSSAGG [r19_123_JUSTAS]", "measurementQualifier": "=", "folding stability dG unfold [kcal/mol]": 1.38}
{"residues": "SAGGSAGGRFTVQFRVPGTLEEAREKAEEIAENLPPNFKDVEVDIEPHPKNGWIRVEVQIKMKKSAGGSAGG [r6_164_TrROS]", "measurementQualifier": "=", "folding stability dG unfold [kcal/mol]": 1.01}
{"residues": "SAGGSAGGSKKIKIKVKVKNPKTKKYYEIEIEISEEELKEGKLTKEQIKKELEKLGYEVEIVPSAGGSAGGS [r20_221_TrROS_Hall]", "measurementQualifier": "=", "folding stability dG unfold [kcal/mol]": 2.9}
{"residues": "SAGMEIKYTITVSLSSGQTLGTKTITDPGKSIEEIVKEFAKIPGLTLITVTVTNPDGTPTTVTIPVNPSAGG [r19_269_JUSTAS]", "measurementQualifier": "=", "folding stability dG unfold [kcal/mol]": 2.79}
{"residues": "SAGGSAGGSSPVPVKVSANSVEPGESSSSNINIPKEALEKDSLTPEELKKILQKQGPNVTITGSAGGSAGGS [r20_221_JUSTAS]", "measurementQualifier": "=", "folding stability dG unfold [kcal/mol]": -0.0407}
{"residues": "SAGGSAGGSAGNEVRVDPDTNLLLVELSNGGRARVLLNEGVIYIEPEGTTFEDIEIEPAASAGGSAGGSAGG [r17_174_TrMRF]", "measurementQualifier": "<", "folding stability dG unfold [kcal/mol]": -1}
{"residues": "SAGGMIRIERDGDRLTIQIPMPPGQPPTPEQVEEFARDILKKLGPDVRVKDVSHDPNGGFTIELKVPSAGGS [r8_103_TrROS]", "measurementQualifier": "=", "folding stability dG unfold [kcal/mol]": 1.81}
{"residues": "SAGGSAGGSGITPAAKKIAAEIEKKYPNEKIKVEEELLPNGYLKIKVTTDNGKKYEIIIKVGGSAGGSAGGS [r20_210_TrMRF]", "measurementQualifier": "=", "folding stability dG unfold [kcal/mol]": 3.23}
